Test: blockers of polyQ-driven CASP3 activation – cell-based (AID 1583)
Details: polyglutamine-induced caspase-3 activation, cell assay; stronger effect = higher value; concentration not given here
Provide the recorded inhibition for the entries that follow.
Write the answer as a number in %, unit excluded.

query: For "COC(=O)[C@H]1[C@H]2C[C@@H]3c4[nH]c5cc(OC)ccc5c4CCN3C[C@H]2C[C@@H](OC(=O)c2cc(OC)c(OC)c(OC)c2)[C@@H]1OC" , what is its reported inhibition?
result: -42.7

query: And the next one, "C/C=C(/C(=C/C)c1ccc(O)cc1)c1ccc(O)cc1" ?
result: 31.3

query: // same read-out, input: "O=C(O)c1ccccc1O"
result: 11.5

query: Also, "Nc1ccc(S(=O)(=O)Nc2ccccn2)cc1" please.
result: -3.18

query: Next molecule: "CCn1cc(C(=O)O)c(=O)c2cnc(N3CCNCC3)nc21"
result: -5.14

query: Input "CCN(CC)CCOCCOC(=O)C1(c2ccccc2)CCCC1"
result: -3.33

====

Assay: EMT-state selective cytotoxicity in co-culture – imaging, PC-3E GFP, TEM4-18 mCherry, primary screen (AID 1345086);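 also: cells exposed to compound for 72 h before imaging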
Settings: PC-3E GFP / TEM4-18 mCherry co-culture, imaging cell counts; measured here: mesenchymal TEM4-18 mCherry cell survival; at 1 µM
Strictly below 0.9 in normalised cell number: true (1). Otherwise: false (0).

query: Does the reported normalised cell number of "Cc1c(N(C)C)c(=O)n(-c2ccccc2)n1C" stay below 0.9?
result: false (0)

query: How about this molecule: "Cc1cnc(C(=O)O)c[n+]1[O-]"
result: false (0)

query: Continue with "CC(=O)Oc1cccc2c1C(=O)c1c(OC(C)=O)cc(C(=O)O)cc1C2=O"
result: false (0)

query: Also "Cc1c(Cl)cccc1Nc1ccccc1C(=O)O" ?
result: false (0)

query: Moving on to "Cc1ncc([N+](=O)[O-])n1CCO"
result: false (0)

query: Next: "CCN1CCN(c2cc3c(cc2F)c(=O)c(C(=O)O)cn3C2CC2)CC1"
result: false (0)

query: Another: "CC(=O)OCC(=O)NCCCOc1cccc(CN2CCCCC2)c1"
result: false (0)

query: Next record, please: "Cc1onc(-c2ccccc2Cl)c1C(=O)N[C@@H]1C(=O)N2[C@@H]1SC(C)(C)[C@@H]2C(=O)O"
result: false (0)

query: What do you have for CCCCCCCCCCCCCCCCC(C(=O)O)C(O)(CC(=O)O)C(=O)O (stereo not drawn) ?
result: false (0)

query: For "COc1ccc(C(=O)c2ccccc2)c(O)c1" then?
result: false (0)

query: Another molecule to check: "O=C(O)/C=C(\CC(=O)O)C(=O)O"
result: false (0)

query: Do the same for "NC(=NCCCCCCN=C(N)/N=C(\N)Nc1ccc(Cl)cc1)/N=C(\N)Nc1ccc(Cl)cc1" please
result: false (0)

query: Next molecule: "CCCCCCCCCCCCCCCCOP(=O)([O-])OCC[N+](C)(C)C"
result: false (0)

query: Input "Cc1cc2cc3c(C)cc(=O)oc3c(C)c2o1"
result: false (0)

query: Check CC(C)NCC(O)COc1ccc(COCCOC(C)C)cc1 (stereo not drawn) too.
result: false (0)

query: Also check "C=C1c2cccc(O)c2C(O)=C2C(=O)[C@]3(O)C(O)=C(C(N)=O)C(=O)[C@@H](N(C)C)[C@@H]3[C@@H](O)[C@H]12"
result: true (1)

query: Item: "CC(C)c1nc(CN(C)C(=O)N[C@H](C(=O)N[C@@H](Cc2ccccc2)C[C@H](O)[C@H](Cc2ccccc2)NC(=O)OCc2cncs2)C(C)C)cs1"
result: false (0)

query: Okay, and "CCOC(=O)c1ncn2c1CN(C)C(=O)c1cc(F)ccc1-2" ?
result: true (1)

query: Proceed to "CN(C)c1ccc2nc3ccc(=[N+](C)C)cc-3sc2c1"
result: true (1)
